These data points were gathered from a melting point compilation (Tetko et al.; mined from patent text by program, amines drawn as free bases though some values may be those of a salt).

Field: melting point. Provide a value for each of the molecules that follow.

Please review the following examples before continuing.
INSERT INTO assay_data (molecule, measured_result) VALUES
  ('Cc1cc2c(cc1C)C(C(=O)O)SCC2=O (single isomer, unassigned; (-))', '177 to 178 °C'),
  ('Cc1cc(N2CCNC(=O)N2)cc(Cl)c1SCc1ccc(Cl)cc1', '165 to 167 °C'),
  ('Cc1c(C)c2c(c(C)c1NCc1ccccc1)OC(C)(C)C2=O', '79 to 83 °C'),
  ('OC(CNC12N=CN=CC1=NC=N2)CN1CCN(C(c2ccc(F)cc2)c2ccc(F)cc2)CC1 (stereo not drawn)', '140 to 170 °C'),
  ('CN1C(=O)N(CC(COc2ccc(-c3ccc(Cl)cc3)cc2)N(O)C=O)C(=O)C1(C)C (stereo not drawn)', '124 to 125 °C');

Give melting point for each of the items listed below.
1. COCCc1nnc(NC(=O)C(c2ccccc2)c2ccccc2)o1
2. N#CCCn1cccc1-c1ccc2cnc(Nc3ccc(N4CCOCC4)cc3)nn12
3. C=C1C(C(=O)c2ccccc2)CC(O[Si](c2ccccc2)(c2ccccc2)C(C)(C)C)C1COC(c1ccccc1)(c1ccccc1)c1ccccc1 (stereo not drawn)
4. O=[N+]([O-])c1cn2c(n1)O[C@@H](COc1ccc(N3CCC(CCc4ccc(OC(F)(F)F)cc4)CC3)cc1)C2
5. COc1ccc(Nc2ncnc3cc(Cl)ccc23)cc1
6. Clc1cn2c(Cl)cnc2cn1

result:
["114 to 115 °C", "85 to 89 °C", "142 to 144 °C", "209 to 212 °C", "177 to 179 °C", "115 to 116 °C"]

----------
Field: melting point. Provide a value for each of the compounds that follow.

INSERT INTO results (compound, measured_result) VALUES
  ('Cn1c(=O)cc(-c2ccccc2)c2cc(C(c3ccc(Cl)cc3)n3ccnc3)ccc21 (centres undefined)', '155 °C'),
  ('CC(=O)OCC1OC(n2ccc3c(F)cccc32)C(OC(C)=O)C(OC(C)=O)C1OC(C)=O (centres undefined)', '132 to 135 °C'),
  ('CCc1ccc2c(-c3cnc4[nH]cc(C(=O)N[C@H](C)C(=O)N5CC(C#N)C5)c4n3)nn(C)c2c1', '185 to 190 °C'),
  ('CCCCOc1ccc(-c2ccc3c(c2)C=C(C(=O)Nc2ccc(C(O)c4ccccn4)cc2)CCS3(=O)=O)cc1 (centres undefined)', '142 to 145 °C');

Give melting point for each of the items listed below.
1. CC(C)Oc1ccc(COc2ccc(CC(=O)O)cc2Cl)cc1Cl
2. O=C(O)Cc1ccc(OCCNC(=O)C2Cc3ccccc3N2S(=O)(=O)c2ccc(-c3cc(F)ccc3Cl)cc2)cc1 (centres undefined)
3. CC(C)n1nc(-c2sc(C(=O)NCc3ccncc3)nc2-c2ccc(F)cc2)ccc1=O
4. CCOC(=O)c1nc(C)cc(C#N)c1C

result:
1: 129 to 130 °C; 2: 78 to 84 °C; 3: 155 to 157 °C; 4: 55.5 °C

Give melting point for each of the items listed below.
1. COC(=O)ON(C(N)=O)C(C)c1cc2ccccc2s1 (centres undefined)
2. COc1c(N(C)S(=O)(=O)c2ccc(C)cc2)ccccc1=O
3. Cc1ccccc1C(=O)Nc1ccc(C(=O)N2CCS(=O)c3ccccc32)cc1 (centres undefined)
4. c1c(NC23CC4CC(CC(C4)C2)C3)nc(N2CCNCC2)nc1NC12CC3CC(CC(C3)C1)C2
5. OCc1ccc(-c2ccccc2)s1
6. CCOC(=O)N1CC[C@H](NC(=O)c2cc(N)c(Cl)cc2OC)[C@H](OC)C1 (relative stereo)

result:
1. 124 to 125 °C
2. 94.5 °C
3. 240 to 241 °C
4. 210 to 220 °C
5. 91.5 °C
6. 142 °C
